- Tested on: SW-620 colon
- experiment summary: NCI tumour cell line growth inhibition, 48 h
assay readout: TGI

Use these answered entries as a reference point.
C=C1C(=O)O[C@H]2[C@H]1CC/C(CNC(=O)/C=C/c1ccc(Cl)cc1Cl)=C\CC[C@@]1(C)O[C@@H]21 : 2.68 µM
O=C(O)CN=c1c2ccccc2n(O)c2ccccc12 : > 100 µM

If you can, please state the reported TGI value of Cc1ccccc1NC(=O)c1cc2ccccc2cc1O . > 100 µM

Likewise for NC(=O)N/N=C(\CCC(=O)N(Cc1ccccc1)Cc1ccccc1)CC(=O)c1ccc(F)cc1 ? > 100 µM

###

- Test system: A498 renal
- experiment summary: NCI tumour cell line growth inhibition, 48 h
assay readout: TGI

O=C1c2ccccc2C(=O)c2c(O)c(NCCNCCO)cc(O)c21 : 21 µM

Which measured TGI value corresponds to CCCOP(=S)(N1CC1)N1CC1 ? > 100 µM

And for Cc1cc(C(O)CNC(C)CCn2cnc3c2c(=O)n(C)c(=O)n3C)ccc1O (stereo not drawn) ? > 100 µM

###

Reported GI50 values for the following compounds.
- Tested on: A549 NSCLC
- experiment summary: NCI tumour cell line growth inhibition, 48 h

Worked examples follow.
CN(C)N=Nc1nn(C(=O)Nc2ccc(Cc3ccccc3)cc2)c2ccccc12 : 3.9 µM
Cn1ncnc1C1c2n[nH]c(=O)c3cc(F)cc(c23)NC1c1ccc(F)cc1 (stereo not given) : 7.9 µM
COc1cc2nc(N3CCC[C@@H](NC4=CC(=O)c5ccccc5C4=O)C3)nc(N)c2cc1OC : 1.97 µM

Would you kindly share the measured GI50 for Nc1cc(-c2ccccc2)n(C(=O)Nc2ccc(Oc3ccccc3)cc2)n1 ? 27.8 µM

Same for Cc1ccc(S(=O)(=O)Nc2cc(Sc3ccccc3)c(O)c3ccccc23)cc1 12.3 µM

###

- Test system: HCC-2998 colon
- experiment summary: NCI tumour cell line growth inhibition, 48 h
Each entry gets Not met if its TGI stays under 20 µM, and Met if its TGI is 20 µM or above.

The following compounds have reported results that may help.
O=C1COCCN1c1ccc(NCc2cn(C(=O)c3ccc(Cl)cc3)c3ccccc23)cc1 : Met
COc1ccc2c(c1)C=C1CSCC3=Cc4cc(OC)ccc4OC13O2 : Met
Cc1cccc(N=C2NC(=O)C(CC(=O)Nc3ccccc3Cl)S2)c1 (stereo unspecified) : Met
O=C(O)CO/N=C1/C(c2c(O)[nH]c3ccccc23)=Nc2ccccc21 : Met
Cc1c(C(N)=O)sc2c1c(=O)n(Cc1ccccc1)c1nnc(S(=O)(=O)CC(=O)Nc3ccc(Cl)cc3)n21 : Met
Cc1ccc(-c2c3c(N)c4c(nc3nc3c2c(C)nn3-c2ccccc2)CCC4)cc1 : Not met
CC1CC(=O)c2c(ccc3c2C(=O)c2cccc(O)c2C3=O)C1 (stereo unspecified) : Met
CCCN(CCC)C(=O)c1c(Cl)c2cccnc2n2c(C)cnc12 : Met

Is the recorded value of TGI equal to or greater than 20 µM for this compound? CC1=C(C)C(=O)C(C2=C(C3=CC(=O)C(C)=C(C)C3=O)C(=O)c3ccccc3C2=O)=CC1=O Not met

Next entry: CN(C)Cc1[nH]c2ccccc2c1C(=O)c1ccccc1 Met

What would you report for O=CN1N=C(c2ccc(Nc3ccnc4cc(Cl)ccc34)cc2)CC1c1ccc(Cl)cc1 (stereo unspecified) ? Not met

Try the compound c1cc(C[S+]2CCCC2)oc1C[S+]1CCCC1 Met

Also C=C(CC)C[C@@H]1C[C@]2(C(=O)OC)c3[nH]c4ccccc4c3CCN2C1=O ? Met

Consider next the compound C#CC(O)Cc1ccc(OC)c2occc12 (stereo unspecified) in the same way. Met

Then this compound: Nc1cc(N)c(N=Nc2cccc3c(S(=O)(=O)O)cccc23)cc1N=Nc1cc([N+](=O)[O-])ccc1O Met

Do the same for C=C(C)C(=O)O[C@H]1CC2=CC(CC(C)=C[C@H]3OC(=O)C(=C)C13)OC2=O (stereo partly specified) please Met

Now give it for COc1ccc(/C(C#N)=C(/N)SCc2ccccc2Cl)cc1 too. Met
